TARGET_OF_ASSAY: Transient receptor potential cation channel subfamily V member 2 (Rattus norvegicus, UniProt Q9WUD2)
Sequence (Q9WUD2 whole entry): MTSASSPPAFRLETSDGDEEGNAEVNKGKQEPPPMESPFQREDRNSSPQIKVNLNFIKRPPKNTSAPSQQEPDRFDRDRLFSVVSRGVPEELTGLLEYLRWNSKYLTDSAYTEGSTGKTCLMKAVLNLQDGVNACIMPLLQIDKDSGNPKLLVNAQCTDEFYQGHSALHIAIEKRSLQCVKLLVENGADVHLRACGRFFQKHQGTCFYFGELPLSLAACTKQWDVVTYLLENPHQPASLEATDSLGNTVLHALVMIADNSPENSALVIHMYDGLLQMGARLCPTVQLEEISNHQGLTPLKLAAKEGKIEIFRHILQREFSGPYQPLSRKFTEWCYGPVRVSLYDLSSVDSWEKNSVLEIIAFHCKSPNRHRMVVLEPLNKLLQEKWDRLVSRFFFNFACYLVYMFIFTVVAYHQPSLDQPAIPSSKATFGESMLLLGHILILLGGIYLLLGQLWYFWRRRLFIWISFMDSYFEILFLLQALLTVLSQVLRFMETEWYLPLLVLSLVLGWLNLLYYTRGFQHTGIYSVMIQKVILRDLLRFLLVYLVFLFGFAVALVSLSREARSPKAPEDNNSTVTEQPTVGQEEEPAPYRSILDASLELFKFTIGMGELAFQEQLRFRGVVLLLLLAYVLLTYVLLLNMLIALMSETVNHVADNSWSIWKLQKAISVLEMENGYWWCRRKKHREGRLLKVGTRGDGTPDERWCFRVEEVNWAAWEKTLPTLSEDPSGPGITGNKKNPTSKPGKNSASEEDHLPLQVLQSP
METHOD_DESCRIPTION: Antagonist activity at recombinant rat TRPV2 expressed in HEK293 cells assessed as inhibition of LPC-induced Ca2+ levels preincubated for 5 mins followed by agonist addition by Fuo-4-AM based spectrofluorimetry
Format: cell-based
OUTCOME_MEASURE: pIC50
Scale: pIC50 equals -log10([C]), with [C] in mol/L.

Example cases with answers are listed next.
>>> df
                  compound_structure_string  outcome_measure  data_value
0  CCCCCCCCCCCCCCCC[Se]CCC(=O)NCc1ccc(O)c(OC)c1            pIC50        5.37
1               CCCCCC/C=C\CCCCCCCC(=O)NCCO            pIC50        5.46
2            CCCCCCCC/C=C\CCCCCCCCCCCC(N)=O            pIC50        6.17
3  CCCCCCCC/C=C\CCCCCCCC[Se]C[C@H](N)C(=O)NCc1ccc(O)c(OC)c1            pIC50        5.77
4  CCCCC/C=C\C/C=C\CCCCCCCC(=O)NCc1ccc(O)c(OC)c1            pIC50        5.59

Tell me pIC50 reported for CCCCCCCC/C=C\CCCCCCCC(=O)N/N=C/c1ccc(O)c(OC)c1
6.92

Tell me pIC50 reported for CCCCCCCCCCCCCCCCCCCC(=O)NCc1ccc(O)c(OC)c1
5.51

Tell me pIC50 reported for CCCCC/C=C\C/C=C\CCCCCCCCSCCC(=O)NCc1ccc(O)c(OC)c1
5.85

Tell me pIC50 reported for CCCCCCCCCCCCCCCCSC[C@H](N)C(=O)NCc1ccc(O)c(OC)c1
5.85

Tell me pIC50 reported for CCCCCCCC/C=C\CCCCCCCC(=O)NCc1ccc(O)c(OC)c1
6.80
